measuredTarget: KRAS G12D (Homo sapiens (Human), UniProt P01116, G12D)
Sequence (P01116-2 other isoform, or with tags, fused parts or gaps G12D): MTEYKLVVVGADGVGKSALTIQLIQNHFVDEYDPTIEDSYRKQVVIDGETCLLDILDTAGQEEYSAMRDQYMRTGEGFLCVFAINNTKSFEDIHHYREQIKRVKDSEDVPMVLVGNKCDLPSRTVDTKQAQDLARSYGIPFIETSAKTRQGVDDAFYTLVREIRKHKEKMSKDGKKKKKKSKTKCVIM
assayRemarks: KRAS G12D LoEnz Biochemical Assay, BODIPY-GDP Exchange TR-FRET (SOS1-mediated nucleotide exchange)
recordedConditions: read-out: KRas (G12D) GDP HTRF IC50
experimentalReadout: IC50 (nM)
Answers are plain numbers, in nM.

Completed entries (count: 2):
Query block: Using the record for Cc1cc(N)c(Cl)c(-c2nc3c4c(nc(OC[C@@]56CCCN5C[C@H](F)C6)nc4c2Cl)N2C[C@H]4CC[C@H](N4)[C@H]2[C@H](C)O3)c1C(F)(F)F (single isomer, unassigned) [Compound 240 (atrop. 1)] , report its IC50.
Result block: 44.9

Query block: Check Cc1c(F)c(N)cc(-c2nc3c4c(nc(OC[C@H]5CC[C@@H]6CN(C)C(=O)CN56)nc4c2F)N2C[C@H]4CC[C@H](N4)[C@H]2[C@H](C)O3)c1C(F)(F)F (single isomer, unassigned) [131 (isomer 1)] too.
Result block: 13.9

Now, please, on to the next compound.
Query block: Using the record for Cc1nc(N)cc(-c2nc3c4c(nc(OCC5(CN6CC7CCC(C6)O7)CC5)nc4c2F)N2C[C@H]4CC[C@H](N4)[C@H]2[C@H](C)O3)c1C(F)(F)F , report its IC50.
Result block: 0.36
